Target: SIRT7 (Mus musculus, UniProt Q8BKJ9)
Sequence (Q8BKJ9 1-402): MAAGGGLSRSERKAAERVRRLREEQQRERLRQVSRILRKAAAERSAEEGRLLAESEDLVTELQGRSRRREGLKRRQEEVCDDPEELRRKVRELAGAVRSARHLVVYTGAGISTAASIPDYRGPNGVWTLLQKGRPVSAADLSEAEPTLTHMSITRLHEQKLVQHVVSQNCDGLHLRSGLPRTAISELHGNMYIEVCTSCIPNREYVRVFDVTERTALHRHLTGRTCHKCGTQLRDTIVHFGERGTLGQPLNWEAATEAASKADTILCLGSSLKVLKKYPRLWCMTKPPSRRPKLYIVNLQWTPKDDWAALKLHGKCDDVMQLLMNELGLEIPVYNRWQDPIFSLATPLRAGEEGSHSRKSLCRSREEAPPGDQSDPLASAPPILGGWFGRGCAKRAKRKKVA
Experiment: NAM inhibition assay (in vitro deacylation, LC-MS/MS)
Settings: IC50, NAM (relative IC50), palmitoyl H3K18 peptide substrate; wild-type SIRT7
endpoint: IC50 (µM)
Give a bare numeral; the unit µM is implied.

[in] For the compound NC(=O)c1cccnc1 [NAM, Nicotinamide] , what IC50 is on record?
[out] 544

---

Molecular target: SIRT7 (Mus musculus, UniProt Q8BKJ9)
Assay: NAM inhibition assay (in vitro deacylation, LC-MS/MS)
Conditions: IC50, NAM (relative IC50), succinyl H3K18 peptide substrate; wild-type SIRT7
endpoint: pIC50
The read-out pIC50 is expressed as -log10 of concentration in moles per litre.

[in] May I ask what pIC50 has been recorded for NC(=O)c1cccnc1 [NAM, Nicotinamide] ?
[out] 2.91

---

Biological target: UniProt Q8BKJ9
Sequence (Q8BKJ9 1-402): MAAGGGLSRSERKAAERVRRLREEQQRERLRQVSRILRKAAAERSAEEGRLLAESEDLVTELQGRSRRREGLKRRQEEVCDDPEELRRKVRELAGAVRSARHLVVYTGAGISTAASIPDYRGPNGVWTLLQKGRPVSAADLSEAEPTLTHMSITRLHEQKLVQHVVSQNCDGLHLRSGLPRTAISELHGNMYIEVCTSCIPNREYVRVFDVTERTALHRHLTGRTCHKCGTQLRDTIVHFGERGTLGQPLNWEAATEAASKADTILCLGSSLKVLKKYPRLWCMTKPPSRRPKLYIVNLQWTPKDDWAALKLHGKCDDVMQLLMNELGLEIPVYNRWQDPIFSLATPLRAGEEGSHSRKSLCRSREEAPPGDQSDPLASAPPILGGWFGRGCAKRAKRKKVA
Assay: NAM inhibition assay (in vitro deacylation, LC-MS/MS)
Details: IC50, NAM (relative IC50), propionyl H3K18 peptide substrate; wild-type SIRT7
endpoint: IC50

[in] Can you look up the measured IC50 of NC(=O)c1cccnc1 [NAM, Nicotinamide] for me?
[out] 787 µM

---

Biological target: UniProtKB Q8BKJ9
Experiment: NAM inhibition assay (in vitro deacylation, LC-MS/MS)
Conditions: IC50, NAM (relative IC50), myristoyl H3K18 peptide substrate; wild-type SIRT7
endpoint: pIC50
Please keep in mind that pIC50 is minus log10 of the molar concentration; only the number is needed.

[in] Record request: pIC50 value, item NC(=O)c1cccnc1 [NAM, Nicotinamide]
[out] 3.54
